Assay: Metabolic stability in CD-1 mouse liver microsomes assessed as half life at 1 uM preincubated for 5 mins before addition of NADPH by LC-MS/MS method
Format: ADME
Doc: threshold 20 min (exclusive). Items with half-life at 1 µM beneath it return Met; others return Not met.

# count of solved cases: 6
compound	assigned.category
COCCn1cc(C(=O)C(=O)Nc2ccc(OC)nc2)c2ccccc21	Met
COc1ncc(NC(=O)C(=O)c2cn(C(C)C)c3ccccc23)cn1	Met
CC(C)Oc1ccc(NC(=O)C(=O)c2cn(C(C)C)c3ccccc23)cn1	Not met
COCCc1cc(C(=O)C(=O)Nc2ccc(OC)nc2)c2ccccn12	Met
COc1ccc(NC(=O)C(=O)c2cn(C(C)C)c3ccccc23)cn1	Met
COCCn1cc(C(=O)C(=O)Nc2ccc(OC(C)C)nc2)c2ccccc21	Not met

In: Lab note: half-life at 1 µM threshold 20 min. Does this compound come in strictly under it? `COc1ccc(NC(=O)C(=O)c2cc(C(C)C)n3ccccc23)cn1`
Out: Met

In: Lab note: half-life at 1 µM threshold 20 min. Does this compound come in strictly under it? `COCC(C)(C)n1cc(C(=O)C(=O)Nc2ccc(OC)nc2)c2ccccc21`
Out: Met
